The reported numbers originate from ChEMBL document CHEMBL1138146.

# Tgt: cGMP-inhibited 3',5'-cyclic phosphodiesterase 3A (Homo sapiens)
# Test Method Notes: Inhibition of PDE3A at 50 uM
Below is a list of entries, each paired with its recorded inhibition value.
Could you give me the number in %? Just the number is fine.

Sample Smiles: O=c1cc(N2CCOCC2)oc2c(C#Cc3ccccc3)cccc12
inhibition / %: 60
--
Sample Smiles: O=c1cc(N2CCOCC2)oc2c(OCc3cccnc3)cccc12
inhibition / %: 5

Enquiry: Lookup: inhibition / cGMP-inhibited 3',5'-cyclic phosphodiesterase 3A (Homo sapiens) / Cc1c(Oc2ccccc2)ccc2c(=O)cc(N3CCOCC3)oc12
Return: 78

Enquiry: I'm curious: which inhibition was measured for O=c1cc(N2CCOCC2)oc2c(OCc3ccccc3)cccc12 tested on cGMP-inhibited 3',5'-cyclic phosphodiesterase 3A (Homo sapiens)?
Return: -7

Enquiry: Tell me reported inhibition for O=c1cc(N2CCOCC2)oc2cc(OCc3cccnc3)ccc12 , tested with cGMP-inhibited 3',5'-cyclic phosphodiesterase 3A (Homo sapiens).
Return: 19

Enquiry: # returns recorded inhibition (system: cGMP-inhibited 3',5'-cyclic phosphodiesterase 3A (Homo sapiens)) for Cc1c(OCc2ccccc2)ccc2c(=O)cc(N3CCOCC3)oc12
Return: 86

Enquiry: Form field: inhibition recorded for Cc1c(OCCN2CCN(C)CC2)ccc2c(=O)cc(N3CCOCC3)oc12 with cGMP-inhibited 3',5'-cyclic phosphodiesterase 3A (Homo sapiens) (enter value)
Return: -10

Enquiry: cGMP-inhibited 3',5'-cyclic phosphodiesterase 3A (Homo sapiens) / inhibition / O=c1cc(N2CCOCC2)oc2cc(-c3ccccc3)ccc12 : value?
Return: 50

Enquiry: Any idea what inhibition came out for O=c1cc(N2CCOCC2)oc2cc(C#Cc3ccccc3)ccc12 on cGMP-inhibited 3',5'-cyclic phosphodiesterase 3A (Homo sapiens)?
Return: 70

Enquiry: Request - read-out inhibition | tested on cGMP-inhibited 3',5'-cyclic phosphodiesterase 3A (Homo sapiens) | compound Cc1c(OCc2cccnc2)ccc2c(=O)cc(N3CCOCC3)oc12
Return: 68

Enquiry: Reported inhibition for cGMP-inhibited 3',5'-cyclic phosphodiesterase 3A (Homo sapiens), given O=c1cc(N2CCOCC2)oc2c(-c3ccccc3)cccc12 ?
Return: 35

----------
# Tgt: UniProt:Q14432
# Sequence (Q14432 whole entry): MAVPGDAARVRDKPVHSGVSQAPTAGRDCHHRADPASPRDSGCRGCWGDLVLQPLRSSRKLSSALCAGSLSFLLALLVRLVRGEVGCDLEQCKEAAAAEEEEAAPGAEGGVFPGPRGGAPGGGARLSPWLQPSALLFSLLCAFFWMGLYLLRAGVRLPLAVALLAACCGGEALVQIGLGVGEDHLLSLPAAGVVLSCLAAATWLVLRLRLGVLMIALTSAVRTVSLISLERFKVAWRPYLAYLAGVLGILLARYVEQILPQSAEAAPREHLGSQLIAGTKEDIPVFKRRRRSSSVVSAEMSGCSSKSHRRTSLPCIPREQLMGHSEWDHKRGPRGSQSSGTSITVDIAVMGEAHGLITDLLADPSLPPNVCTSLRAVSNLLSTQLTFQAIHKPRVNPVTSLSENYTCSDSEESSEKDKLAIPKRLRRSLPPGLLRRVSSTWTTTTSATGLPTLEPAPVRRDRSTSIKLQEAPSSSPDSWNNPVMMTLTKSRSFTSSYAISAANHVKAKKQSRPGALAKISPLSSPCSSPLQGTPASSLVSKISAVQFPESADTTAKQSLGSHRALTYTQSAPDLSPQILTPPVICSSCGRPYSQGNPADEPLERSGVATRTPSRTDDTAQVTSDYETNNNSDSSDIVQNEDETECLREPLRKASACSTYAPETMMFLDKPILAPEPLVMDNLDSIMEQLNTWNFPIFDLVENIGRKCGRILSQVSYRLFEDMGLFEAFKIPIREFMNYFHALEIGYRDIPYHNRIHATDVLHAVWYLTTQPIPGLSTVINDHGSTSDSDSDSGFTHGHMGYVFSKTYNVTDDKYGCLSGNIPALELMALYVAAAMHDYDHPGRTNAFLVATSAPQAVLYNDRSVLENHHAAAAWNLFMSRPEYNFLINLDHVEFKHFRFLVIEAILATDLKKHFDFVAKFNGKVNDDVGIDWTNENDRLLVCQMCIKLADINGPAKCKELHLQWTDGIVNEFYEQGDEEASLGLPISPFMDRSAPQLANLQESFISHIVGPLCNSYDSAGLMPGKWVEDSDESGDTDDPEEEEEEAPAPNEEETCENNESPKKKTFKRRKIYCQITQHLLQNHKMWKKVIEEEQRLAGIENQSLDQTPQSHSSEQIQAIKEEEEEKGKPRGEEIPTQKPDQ
# Test Method Notes: Inhibition of PDE3A at 50 uM
Value Kind: inhibition (%)
// units = %; emit number, no label

Sample Smiles: O=c1cc(N2CCOCC2)oc2cc(OCc3ccccc3)ccc12
U: %
Observed Result: 49

Enquiry: Which measured inhibition belongs to COc1cc(-c2ccc(Cl)cc2)c2oc(N3CCOCC3)cc(=O)c2c1 , tested on UniProt:Q14432?
Return: 63

Enquiry: Item: Cc1c(-c2ccccc2)ccc2c(=O)cc(N3CCOCC3)oc12 Test system: UniProt:Q14432 Read-out: inhibition Value: ?
Return: 83

Enquiry: Please provide the recorded inhibition for O=c1cc(N2CCOCC2)oc2cc(Oc3ccccc3)ccc12 , tested on UniProt:Q14432.
Return: 43

Enquiry: Under UniProt:Q14432: inhibition value of Cc1c(C#Cc2ccccc2)ccc2c(=O)cc(N3CCOCC3)oc12 ?
Return: 44

Enquiry: So what inhibition did O=c1cc(N2CCOCC2)oc2c(CCc3ccccc3)cccc12 get with UniProt:Q14432?
Return: 28
